The values you see were collected from PubChem BioAssay.

experiment: PSAC antagonists in infected red cells, primary screen, cell-based, P. falciparum Indochina, OD700, 1 h (AID 1154); conditions: P. falciparum Indochina infected RBC osmotic lysis, higher = more signal, called active from +8 up or from −8 down
Metric: z-score
Respond using a number only.

Here is how some compounds turned out for z-score.
# Compound, z-score
measured = [
    ("CC1CC/C=C\\[C@H]2OC34C=CCN(Cn5nnc6ccccc65)C(=O)[C@H]3N(CCO)C(=O)[C@@H]4C2C(=O)O1 (some centres not stated)", 2.87),
    ("CO[C@H]([C@@H](C)[C@H](OC)c1ccccc1)[C@H](C)[C@@H](OC)[C@H](C)C(C)=O", 0.815),
    ("COc1ccc(COC(=O)NN=C2C[C@@H](O)[C@@H](O)[C@@H]3[C@@H]4C(=O)N(c5ccc(F)cc5F)C(=O)[C@@H]4CC[C@@H]23)cc1", 5.54),
]

QUERY: Returns the measured z-score for the input compound. Input: `COc1ccc(O[C@H]2C=C[C@@H](c3ccccc3)O[C@@H]2COC(=O)N2CCCCC2)cc1`
RESULT: 2

====

experiment: basal MM1S mitochondrial membrane potential changes, profiling panel, cell-based, JC-1 fluorescence, 24 h, 100 nL compound (AID 1170); details: higher = more signal; also: test concentration not given here
Measured z-score, listed per entry for reference.
Respond using a number only.

Here is how some compounds turned out for z-score.
# Compound Structure, z-score
data = [
    ("CC=CC1=C(CO)[C@H](O)[C@H]2O[C@H]2[C@H]1O", 0.677),
    ("[N-]=[N+]=NCc1ccccc1C[C@]1(C(=O)NCc2ccccc2)N=C(c2ccc(OCCCO)cc2)O[C@H]1c1ccccc1N=[N+]=[N-]", -1.5),
    ("COCC(=C=CC[C@@H](O)c1ccccc1OCCO)CCO", 0.918),
]

QUERY: Returns the measured z-score for the input compound. Input: `CC(C)=CCCC(C)=CCON=C1C[C@@H](O)[C@@H](O)[C@@H]2[C@@H]3C(=O)N(C[C@@H]4CCCO4)C(=O)[C@@H]3CC[C@@H]12`
RESULT: -0.761

QUERY: Returns the measured z-score for the input compound. Input: `CCOC(=O)CCN1C(=O)[C@H]2[C@H]3[C@H](O)C=CC(=O)[C@@H]3CC[C@H]2C1=O`
RESULT: 0.176

====

system: Sonic hedgehog protein (Shh); assay: small-molecule binders of Shh protein, primary screen, biochemical, small-molecule microarray, 635/667 nm fluorescence (AID 1151); details: small-molecule microarray binding, 635 nm fluorescence; higher = more signal;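 also: Shh protein binding to compounds spotted on small-molecule microarray slides; score combines spot fluorescence intensity with signal-to-noise across triplicate slides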
Measured composite z-score, listed per entry for reference.

Here is how some compounds turned out for composite z-score.
# Compound, Experimental Result
records = [
    ("C[C@@H]1CC[C@H]2C(=O)O[C@H](COc3ccc(C(C)(C)C)cc3)CN2[C@H]1c1ccc(Br)cc1", 0.348),
    ("CCN(CC)c1ccc(N2CC=CC34O[C@@H]5/C=C\\CCC(C)OC(=O)C5[C@H]3C(=O)N(CCCO)[C@@H]4C2=O)cc1 (stereo partly drawn)", -0.403),
    ("CO[C@H]1COC(=O)[C@H](C)NC(=O)[C@@H](C)COC(=O)CC=C[C@@H]1C", 1.47),
]

QUERY: Param readout = composite z-score; param system = Sonic hedgehog protein (Shh); param query = `COC(=O)[C@H]1COC(c2ccc(OCCCO)cc2)=N1` ; response: value
RESULT: -0.196

QUERY: Param readout = composite z-score; param system = Sonic hedgehog protein (Shh); param query = `COCCCNC(=O)[C@@]1(Sc2ccc(C)cc2)CC(=O)N(Cc2ccccc2)[C@@H]1c1ccc(CO)cc1I` ; response: value
RESULT: -0.772

QUERY: Param readout = composite z-score; param system = Sonic hedgehog protein (Shh); param query = `[N-]=[N+]=Nc1ccccc1C[C@@]1(C(N)=O)N=C(c2ccc(OCCCO)cc2)O[C@@H]1c1ccccc1` ; response: value
RESULT: -0.714

QUERY: Param readout = composite z-score; param system = Sonic hedgehog protein (Shh); param query = `COCCCNC(=O)[C@@]1(C)c2ccccc2C(=O)N(Cc2ccc(OC(F)(F)F)cc2)[C@H]1c1ccc(CO)cc1` ; response: value
RESULT: -0.32

QUERY: Param readout = composite z-score; param system = Sonic hedgehog protein (Shh); param query = CN1C(=O)C2C=CC(C(O)c3ccc(Br)cc3)N(N(c3ccccc3)c3ccccc3)C2C1=O (stereo not drawn) ; response: value
RESULT: -0.583
